- assay overview: Intrinsic clearance in human liver microsomes assessed per gram of protein at 0.1 uM after 60 mins in presence of NADPH by LC-MS/MS analysis
- Format: ADME, Microsome
- condition notes: 1 h
CLint overview
value kind: CLint

C[C@H](F)[C@H]1COC(=O)N1c1ccnc(NC2(c3cn(-c4cccc(C(F)(F)F)c4)cn3)CC2)n1: 153 mL/min/g
C[C@H](F)[C@H]1COC(=O)N1c1ccnc(NC2(c3cn(-c4ccc(F)c(Cl)c4)cn3)CC2)n1: 125 mL/min/g
C[C@H](F)[C@H]1COC(=O)N1c1cc(Cl)nc(NC2(c3cn(-c4ccc(F)c(Cl)c4)cn3)CC2)n1: 110 mL/min/g
C[C@H](F)[C@H]1COC(=O)N1c1ccnc(NC2(c3cn(-c4cc(F)cc(Cl)c4)cn3)CC2)n1: 350 mL/min/g
